tested on: angiotensin I-converting enzyme (ACE); assay: ACE inhibitory activity assay (fluorometric ACE activity assay kit); format: biochemical; conditions: peptide sample 1 mg/mL; replicate 3
Tick Y if ACE inhibitory activity is 6% or greater. Tick N if ACE inhibitory activity is less than 6%.

{"SEQUENCE_STRING": "LMFMAVAFF [P12, synthesized peptide identified from jellyfish fraction PUR20C]", "ASSIGNED_LABEL": "Y"}
{"SEQUENCE_STRING": "TDSPAPSETTD [P2, synthesized peptide identified from jellyfish fraction PUR20C]", "ASSIGNED_LABEL": "N"}
{"SEQUENCE_STRING": "NFTVLCDSLE [P10, synthesized peptide identified from jellyfish fraction PUR20C]", "ASSIGNED_LABEL": "Y"}
{"SEQUENCE_STRING": "KFNEVVYFL [P15, synthesized peptide identified from jellyfish fraction PUR20C]", "ASSIGNED_LABEL": "Y"}
